assay: Solubility of the compound […] after 24 hrs by UV-based HPLC analysis; format: physicochemical; details: DMSO
Quantity kind: solubility at 24 h
A complete answer gives the number followed by the unit.

INSERT INTO results (molecule, quantity_kind, measured) VALUES
  ('COc1cc2c(Oc3ccc(NS(=O)(=O)c4cc(F)ccc4F)cc3F)ccnc2cc1OCCCN1CCCC(C)C1 (configuration not stated)', 'solubility at 24 h', '18 µM');

// switching to the query molecule
Task: Reported solubility at 24 h for COc1cc2c(Oc3ccc(NS(=O)(=O)c4cc(F)ccc4F)cc3F)ccnc2cc1OCCCN1CCN(C)CC1 : what is it?
Output: 68.8 µM

Values were extracted from ChEMBL document CHEMBL4371006.
